- Test system: DU-145 (androgen-insensitive) prostate cancer cell line
- method.description: MTT cytotoxicity test, DU-145
- Format: cell-based
- details: 24 h, mean ± SD, read-out: IC50 determined by MTT cytotoxicity test
pIC50: −log10 of the molar value.

>  <compound>
CC[C@@H](C(C)C)[C@@H](O)[C@H](O)[C@@H](C)[C@H]1CC[C@H]2[C@@H]3CC(=O)[C@H]4C[C@H](O)[C@H](O)C[C@]4(C)[C@H]3CC[C@]12C

>  <pIC50>
4.35

$$$$
>  <compound>
CC(C)[C@@H](C)[C@@H](O)[C@H](O)[C@@H](C)[C@H]1CC[C@H]2[C@@H]3COC(=O)[C@H]4C[C@H](O)[C@H](O)C[C@]4(C)[C@H]3CC[C@]12C [Brassinosteroid 6, 24-Epibrassinolide]

>  <pIC50>
4.19

$$$$

Reference for the values: patent US20100204460A1
